// provenance: patent US20240417469A1

Below, each entry is listed with its recorded koff.
# tested-target: T1, recombinant CD3D&E protein (human CD3-his tag) (human, UniProt P04234 22-105; P07766 23-126, limits assumed)
# T1 construct: Analyte in Biacore; also called CD3D&E-His; CD3d&ε-His
# T1 sequence (P04234 22-105 limits assumed, chain 1 of 2): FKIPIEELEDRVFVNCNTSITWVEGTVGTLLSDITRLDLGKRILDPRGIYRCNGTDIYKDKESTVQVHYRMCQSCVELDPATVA
# T1 sequence (P07766 23-126 limits assumed, chain 2 of 2): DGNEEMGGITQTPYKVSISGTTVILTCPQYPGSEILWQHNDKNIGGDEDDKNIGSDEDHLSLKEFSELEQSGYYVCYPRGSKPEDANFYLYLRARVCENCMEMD
# experiment-notes: SPR Biacore, Ab captured on Protein A;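 note: humanized antibodies on a Protein A chip, human CD3-his analyte flowed over in serial dilutions for 3 min, dissociation tracked 120–360 s on a Biacore T200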
Number in s⁻¹, nothing else.

These recorded examples may help you get a feel for the data.
{"binder": "Hu155A9B1-17 (antibody, V domains shown, humanized mAb) VH: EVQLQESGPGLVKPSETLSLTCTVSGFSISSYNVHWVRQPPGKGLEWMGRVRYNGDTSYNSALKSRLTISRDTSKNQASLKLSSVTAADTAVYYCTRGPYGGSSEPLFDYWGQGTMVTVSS VL: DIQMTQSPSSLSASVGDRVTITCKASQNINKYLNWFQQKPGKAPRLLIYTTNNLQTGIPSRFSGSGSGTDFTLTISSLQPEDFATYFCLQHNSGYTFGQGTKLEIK", "koff (s⁻¹)": 0.00307}
{"binder": "Hu192A7B9-24 (antibody, V domains shown, humanized mAb) VH: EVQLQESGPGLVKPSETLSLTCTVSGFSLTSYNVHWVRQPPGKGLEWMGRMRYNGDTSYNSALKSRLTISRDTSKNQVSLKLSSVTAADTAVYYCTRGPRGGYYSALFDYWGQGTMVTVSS VL: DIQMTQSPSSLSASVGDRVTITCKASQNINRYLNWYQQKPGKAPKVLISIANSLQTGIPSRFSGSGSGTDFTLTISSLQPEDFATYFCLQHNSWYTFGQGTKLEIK", "koff (s⁻¹)": 0.000594}
{"binder": "Hu153A6B1-16 (antibody, V domains shown, humanized mAb) VH: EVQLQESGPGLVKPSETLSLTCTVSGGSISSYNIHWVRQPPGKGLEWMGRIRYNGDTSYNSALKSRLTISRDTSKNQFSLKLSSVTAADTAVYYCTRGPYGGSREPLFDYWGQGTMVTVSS VL: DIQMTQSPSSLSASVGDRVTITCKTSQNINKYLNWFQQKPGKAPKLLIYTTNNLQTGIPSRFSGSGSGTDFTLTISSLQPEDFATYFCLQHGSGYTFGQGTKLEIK", "koff (s⁻¹)": 0.111}
{"binder": "Hu153A6B1-8 (antibody, V domains shown, humanized mAb) VH: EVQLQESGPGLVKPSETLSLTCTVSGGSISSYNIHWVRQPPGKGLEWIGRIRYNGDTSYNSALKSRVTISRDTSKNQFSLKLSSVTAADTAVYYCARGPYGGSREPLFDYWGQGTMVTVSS VL: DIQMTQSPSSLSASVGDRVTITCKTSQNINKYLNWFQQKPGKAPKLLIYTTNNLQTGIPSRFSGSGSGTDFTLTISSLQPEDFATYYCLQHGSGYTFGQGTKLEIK", "koff (s⁻¹)": 0.0396}

In the following, a different binder is considered.
Problem: Could you tell me which koff is on file for Hu153A6B1-4 (antibody, V domains shown, humanized mAb) VH: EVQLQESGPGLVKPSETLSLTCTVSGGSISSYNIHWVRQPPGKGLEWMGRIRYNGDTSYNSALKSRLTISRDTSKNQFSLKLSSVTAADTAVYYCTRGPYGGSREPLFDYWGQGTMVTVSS VL: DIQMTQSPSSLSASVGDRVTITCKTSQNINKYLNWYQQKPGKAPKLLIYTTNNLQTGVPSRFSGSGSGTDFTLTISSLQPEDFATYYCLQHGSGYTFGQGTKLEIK ?
Result: 0.0195
